Would you kindly list solubility at 2 h for each of these compounds?
Assay Comment: Solubility testing of peptides at different pH
Format: physicochemical
Conditions: 50 mM phosphate buffer pH 9.0; target concentration 1 mg/ml; 2 hours agitation; read-out: Solubility Buffer pH 9.0
Starred links: 1 amine or outer side, 2 acyl side, 3 side chain; linkers in the order of their positions; H or OH if unused. Positions of bridges follow the written chain, without caps; N, C: chain ends. Non-standard residues stand in square brackets, D forms with d. Residues, ends and D or L forms follow the SMILES beside them. X3 = CN(CCCCC(=O)N[C@@H](CS[*:2])C(=O)[*:1])[*:3]; 2Nal = N[C@@H](Cc1ccc2ccccc2c1)C(=O)O; AEF = NCCOc1ccc(C[C@H](N)C(=O)O)cc1; Thp = NC1(C(=O)O)CCOCC1; Aib = CC(C)(N)C(=O)O
Be sure to follow the number with its unit.

# input What does the record list as solubility at 2 h for CC(=O)N[C@H]1CCCCNC(=O)[C@@H]2CSSC[C@H](NC(=O)[C@H](CCC(N)=O)NC(=O)[C@H](Cc3c[nH]c4ccccc34)NC1=O)C(=O)N[C@@H](Cc1ccc(OCCN)cc1)C(=O)N[C@@H](Cc1ccc3ccccc3c1)C(=O)NC1(CCOCC1)C(=O)N[C@H](C(=O)N[C@@H](C)C(=O)N[C@H](CC(C)C)C(N)=O)CCC(=O)N(C)CCCCC(=O)N2 [compound 34] (Ac-KWQC[AEF][2Nal][Thp]EA[dL]-NH2; linker 1-4-8 via X3) ?
# output 0.14 mg/mL

# input Given the entry COc1ccc(C[C@@H]2NC(=O)[C@@H]3CSSC[C@H](NC(=O)[C@@H](NC(C)=O)CCCCNC(=O)C[C@@H](C(=O)N[C@@H](CC(N)=O)C(=O)N[C@@H](CC(N)=O)C(N)=O)NC(=O)C(C)(C)NC(=O)[C@H](Cc4ccc5ccccc5c4)NC2=O)C(=O)N[C@@H](CC(N)=O)C(=O)N[C@@H]([C@@H](C)O)C(=O)N[C@@H](Cc2c[nH]c4ccccc24)C(=O)N[C@@H](CCC(N)=O)C(=O)N3)cc1 [compound 7] (Ac-KCNTWQCY(Me)[2Nal][Aib]DNN-NH2; lactam 1-11; disulfide 2-7) , report its measured solubility at 2 h.
# output 0.15 mg/mL

###

Assay Comment: Chemical stability assessment of peptides (relative purity loss)
Type: physicochemical
Conditions: 50 mM phosphate buffer pH 7.4 + acetonitrile (1:1); 24 hours at 37° C.
Positions of bridges follow the written chain, without caps; N, C: chain ends. Non-standard residues stand in square brackets, D forms with d. Residues, ends and D or L forms follow the SMILES beside them. 2Nal = N[C@@H](Cc1ccc2ccccc2c1)C(=O)O; Aib = CC(C)(N)C(=O)O
Quantity: Chemical stability (relative purity loss) Buffer pH 7.4

# input Give the measured Chemical stability (relative purity loss) Buffer pH 7.4 of COc1ccc(C[C@@H]2NC(=O)[C@@H]3CSSC[C@H](NC(=O)[C@@H](NC(C)=O)CCCCNC(=O)C[C@@H](C(=O)N[C@@H](CC(N)=O)C(=O)N[C@@H](CC(N)=O)C(N)=O)NC(=O)C(C)(C)NC(=O)[C@H](Cc4ccc5ccccc5c4)NC2=O)C(=O)N[C@@H](CC(N)=O)C(=O)N[C@@H]([C@@H](C)O)C(=O)N[C@@H](Cc2c[nH]c4ccccc24)C(=O)N[C@@H](CCC(N)=O)C(=O)N3)cc1 [compound 7] (Ac-KCNTWQCY(Me)[2Nal][Aib]DNN-NH2; lactam 1-11; disulfide 2-7) .
# output 6.0%
